Cited source for all entries: patent US12673936B2

biological target: HiBiT tagged GSPT1 (Homo sapiens, UniProt P15170+Q96SW2); assay: GSPT1 degradation assay (HiBiT assay); type: cell-based; conditions: HT-1080 cells, 20 hours; maximum GSPT1 degradation
Sequence (P15170 whole entry): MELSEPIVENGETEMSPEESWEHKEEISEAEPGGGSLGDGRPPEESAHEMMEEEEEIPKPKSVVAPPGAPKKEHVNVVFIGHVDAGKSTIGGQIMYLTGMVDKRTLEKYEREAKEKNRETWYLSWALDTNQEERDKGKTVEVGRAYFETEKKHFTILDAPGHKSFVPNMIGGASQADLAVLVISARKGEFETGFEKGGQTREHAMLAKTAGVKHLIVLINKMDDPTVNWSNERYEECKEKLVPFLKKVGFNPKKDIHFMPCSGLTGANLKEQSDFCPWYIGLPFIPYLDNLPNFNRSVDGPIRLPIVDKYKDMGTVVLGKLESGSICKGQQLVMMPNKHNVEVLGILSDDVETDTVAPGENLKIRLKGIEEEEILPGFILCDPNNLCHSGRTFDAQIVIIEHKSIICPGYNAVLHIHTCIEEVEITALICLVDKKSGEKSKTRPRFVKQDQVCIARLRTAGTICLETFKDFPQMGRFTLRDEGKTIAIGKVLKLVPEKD
Sequence (Q96SW2 whole entry): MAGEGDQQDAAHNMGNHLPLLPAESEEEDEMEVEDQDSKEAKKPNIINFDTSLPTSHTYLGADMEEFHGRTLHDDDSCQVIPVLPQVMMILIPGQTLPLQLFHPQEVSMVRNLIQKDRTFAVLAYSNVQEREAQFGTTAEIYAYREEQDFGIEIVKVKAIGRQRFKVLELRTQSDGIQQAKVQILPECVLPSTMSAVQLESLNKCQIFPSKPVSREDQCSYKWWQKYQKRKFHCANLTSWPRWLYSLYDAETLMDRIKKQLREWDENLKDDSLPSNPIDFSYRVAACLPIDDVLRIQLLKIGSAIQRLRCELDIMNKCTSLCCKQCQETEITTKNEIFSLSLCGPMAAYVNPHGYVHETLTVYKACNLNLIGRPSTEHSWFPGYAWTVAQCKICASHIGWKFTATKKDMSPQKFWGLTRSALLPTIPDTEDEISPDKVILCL
Sequence (Q16531 whole entry partner): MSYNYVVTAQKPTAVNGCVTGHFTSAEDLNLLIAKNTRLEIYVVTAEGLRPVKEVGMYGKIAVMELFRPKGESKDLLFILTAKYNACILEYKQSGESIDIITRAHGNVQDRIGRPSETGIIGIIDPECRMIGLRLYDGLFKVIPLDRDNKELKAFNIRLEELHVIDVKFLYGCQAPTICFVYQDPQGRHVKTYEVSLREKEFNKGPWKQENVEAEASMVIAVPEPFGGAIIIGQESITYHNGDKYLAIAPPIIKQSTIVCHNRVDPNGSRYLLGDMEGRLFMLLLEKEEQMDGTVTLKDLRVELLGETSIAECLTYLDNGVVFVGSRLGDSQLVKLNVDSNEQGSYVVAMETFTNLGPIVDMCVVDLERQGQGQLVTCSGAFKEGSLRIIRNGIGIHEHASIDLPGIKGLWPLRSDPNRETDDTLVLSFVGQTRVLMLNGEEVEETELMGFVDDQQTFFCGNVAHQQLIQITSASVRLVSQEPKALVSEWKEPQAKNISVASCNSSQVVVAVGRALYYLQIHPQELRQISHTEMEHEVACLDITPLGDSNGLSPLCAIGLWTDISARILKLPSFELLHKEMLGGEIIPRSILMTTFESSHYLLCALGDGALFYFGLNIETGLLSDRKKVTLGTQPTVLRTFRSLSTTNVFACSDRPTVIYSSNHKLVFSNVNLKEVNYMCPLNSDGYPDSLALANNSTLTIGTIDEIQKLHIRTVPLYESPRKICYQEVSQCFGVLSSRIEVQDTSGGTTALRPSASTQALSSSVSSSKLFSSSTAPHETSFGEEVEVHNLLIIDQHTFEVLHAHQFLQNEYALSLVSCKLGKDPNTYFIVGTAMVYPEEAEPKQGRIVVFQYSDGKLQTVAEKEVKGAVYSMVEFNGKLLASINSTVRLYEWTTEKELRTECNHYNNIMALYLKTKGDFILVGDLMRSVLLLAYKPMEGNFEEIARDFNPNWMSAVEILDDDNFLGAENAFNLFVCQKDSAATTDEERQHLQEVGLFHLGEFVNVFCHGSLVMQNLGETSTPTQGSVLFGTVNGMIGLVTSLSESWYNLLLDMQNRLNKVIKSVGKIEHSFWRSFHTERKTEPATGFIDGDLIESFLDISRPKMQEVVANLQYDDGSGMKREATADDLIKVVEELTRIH
Listing of entries alongside the reported HiBiT GSPT1: Dmax.
reported-endpoint: HiBiT GSPT1: Dmax (%)

| compound | reported |
| --- | --- |
| O=C1CCC(N2Cc3cc(C(=O)N[C@H](c4ncccc4F)C4CCC4)ccc3C2=O)C(=O)N1 (stereo in doubt) | 63.1 |
| O=C1CCC(N2Cc3cc(C(=O)N[C@H](c4c(F)cccc4Cl)C4CCC4)ccc3C2=O)C(=O)N1 (stereo in doubt) | 26 |
| O=C1CCC(N2Cc3cc(C(=O)N[C@H](c4ccc(Cl)cn4)C4CCC4)ccc3C2=O)C(=O)N1 (stereo in doubt) | 23.5 |
